Measured Activity values are reported for all entries that follow.
# TESTED_TARGET: Hepatocyte growth factor receptor (Homo sapiens)
# EXPERIMENTAL_DETAILS: Inhibition of human HGFR using KKKSPGEYVNIEFG as substrate assessed as residual activity at 10 uM incubated for 10 mins prior to ATP addition measured after 20 mins by liquid scintillation counting analysis
PARAMETER: Activity (%)

COMPOUND | TESTED_TARGET | PARAMETER | TEST_VALUE
CC(C(=O)O)N1C(=O)/C(=C/c2ccc(-c3ccc(Cl)c(Cl)c3)o2)SC1=S (stereo not given) | Hepatocyte growth factor receptor (Homo sapiens) | Activity | 65
O=C(O)CCCN1C(=O)/C(=C/c2ccc(-c3ccc(Br)cc3)o2)SC1=S | Hepatocyte growth factor receptor (Homo sapiens) | Activity | 51
O=C(O)CCN1C(=O)/C(=C/c2ccc(-c3ccccc3F)o2)SC1=S | Hepatocyte growth factor receptor (Homo sapiens) | Activity | 32
O=C(O)CCCN1C(=O)/C(=C/c2ccc(-c3ccccc3Cl)o2)SC1=S | Hepatocyte growth factor receptor (Homo sapiens) | Activity | 25
O=C(O)CCCCCN1C(=O)/C(=C/c2ccc(-c3ccc(Br)cc3)o2)SC1=S | Hepatocyte growth factor receptor (Homo sapiens) | Activity | 7

Reference source: ChEMBL document CHEMBL2346522
